Every entry's value here was drawn from ChEMBL document CHEMBL1961873.

# TESTED SYSTEM: Death-associated protein kinase 1 (Homo sapiens) (UniProt P53355);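 further: reported figure is the mean inhibition of DAPK1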
# Sequence (P53355 whole entry, looked up): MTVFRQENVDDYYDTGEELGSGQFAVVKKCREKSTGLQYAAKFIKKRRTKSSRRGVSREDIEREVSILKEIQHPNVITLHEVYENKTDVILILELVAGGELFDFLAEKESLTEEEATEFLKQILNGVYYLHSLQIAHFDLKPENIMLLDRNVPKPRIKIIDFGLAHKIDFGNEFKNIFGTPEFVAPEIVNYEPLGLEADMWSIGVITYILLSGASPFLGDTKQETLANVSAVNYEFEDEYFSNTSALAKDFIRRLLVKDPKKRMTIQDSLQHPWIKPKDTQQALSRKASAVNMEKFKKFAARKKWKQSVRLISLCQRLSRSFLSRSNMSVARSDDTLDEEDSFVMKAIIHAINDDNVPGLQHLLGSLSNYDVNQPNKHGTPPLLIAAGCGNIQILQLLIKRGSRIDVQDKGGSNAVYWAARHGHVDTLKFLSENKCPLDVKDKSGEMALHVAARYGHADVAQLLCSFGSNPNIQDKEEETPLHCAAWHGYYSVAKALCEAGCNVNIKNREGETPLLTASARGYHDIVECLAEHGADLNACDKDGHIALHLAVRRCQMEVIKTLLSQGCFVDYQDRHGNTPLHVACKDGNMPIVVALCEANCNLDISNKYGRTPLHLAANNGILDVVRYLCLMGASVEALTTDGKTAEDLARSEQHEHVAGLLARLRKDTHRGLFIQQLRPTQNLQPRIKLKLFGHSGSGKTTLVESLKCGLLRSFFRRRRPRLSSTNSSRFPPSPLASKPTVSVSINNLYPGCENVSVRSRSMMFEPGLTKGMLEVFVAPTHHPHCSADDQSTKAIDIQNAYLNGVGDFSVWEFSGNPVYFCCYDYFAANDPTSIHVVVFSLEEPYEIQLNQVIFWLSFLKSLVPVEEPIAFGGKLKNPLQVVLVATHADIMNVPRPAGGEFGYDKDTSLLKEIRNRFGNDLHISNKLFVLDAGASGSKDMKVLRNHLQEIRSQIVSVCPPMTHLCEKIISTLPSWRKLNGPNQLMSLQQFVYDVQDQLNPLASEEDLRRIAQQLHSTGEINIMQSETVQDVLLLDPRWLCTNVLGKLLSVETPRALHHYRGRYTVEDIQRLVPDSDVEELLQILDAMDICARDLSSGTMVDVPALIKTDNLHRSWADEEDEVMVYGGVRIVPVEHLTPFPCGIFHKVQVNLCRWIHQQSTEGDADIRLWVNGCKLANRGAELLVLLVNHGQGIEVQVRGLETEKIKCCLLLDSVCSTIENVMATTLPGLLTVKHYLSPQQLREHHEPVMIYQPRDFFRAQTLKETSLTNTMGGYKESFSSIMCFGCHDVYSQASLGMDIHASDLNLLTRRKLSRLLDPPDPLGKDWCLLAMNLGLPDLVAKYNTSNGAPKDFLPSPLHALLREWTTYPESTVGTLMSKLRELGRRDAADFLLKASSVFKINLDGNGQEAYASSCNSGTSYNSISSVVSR
# SETTINGS: at 0.1 µM
I'd be grateful if you could share measured inhibition for these entries.
Answers are plain numbers, in %.

Dear colleague, could you send me inhibition for each of the items below? Thanks.
1. O=C(O[C@H]1CN[C@H](C#Cc2cc3ncnc(Nc4ccc5c(cnn5Cc5ccccc5)c4)c3s2)C1)N1CCOCC1
2. NS(=O)(=O)c1cccc(N/C=C2\C(=O)Nc3ccccc32)c1
3. COc1cccc(-n2ncc3c(N/N=C/c4ccc(C(=O)NCCN(C)C)cc4)ncnc32)c1
4. CS(=O)(=O)CCNCc1ccoc1-c1ccc2ncnc(Nc3ccc(OCc4ccccc4)cc3)c2c1
5. NC(=O)c1ccc2c(-c3ccnc(NCCCO)n3)c(-c3ccc(F)cc3)nn2c1
6. COc1cc(N2CCN(C(C)C)CC2)ccc1Nc1nc(Nc2cccc3ncccc23)c2cc[nH]c2n1
7. O=C(O[C@H]1CN[C@H](C#Cc2cc3ncnc(Nc4ccc(OCc5cccc(F)c5)c(Cl)c4)c3s2)C1)N1CCOCC1

Solution:
[-0.35, 10.6, 3.46, -0.21, 11.7, -1.26, -1.79]

Dear colleague, could you send me inhibition for each of the items below? Thanks.
1. OCCCNc1nccc(-c2c(-c3ccc(F)cc3)nn3cc(C(F)(F)F)ccc23)n1
2. CC(C)c1ccc(-c2cc(-c3c[nH]nc3-c3ccccn3)ccn2)cc1
3. Cc1cc(O)cc(C)c1/C=C/c1cncc(C(=O)OC(C)(C)C)c1
4. COC(=O)Nc1nc2cc(Oc3ccc(NC(=O)Nc4ccccc4)cc3)ccc2[nH]1
5. CCS(=O)(=O)c1ccc(OC)c(Nc2ncc(-c3cccc(C(C)=O)c3)o2)c1

Solution:
[-0.68, 0.1, 1.5, 3.21, 2.47]

Dear colleague, could you send me inhibition for each of the items below? Thanks.
1. CN(c1ccc(NC(=O)NCCN2CCOCC2)cc1)c1ccnc(Nc2ccc(CS(C)(=O)=O)cc2)n1
2. c1cnn2ncc(-c3ccnc(NCCCN4CCOCC4)n3)c2c1
3. CC1=C(C(=O)Nc2ccc3[nH]ncc3c2)C(c2ccc(F)cc2)N=C(c2ccc(C(F)(F)F)nc2)N1 (stereo not given)
4. CCS(=O)(=O)c1ccc(OC)c(Nc2ncc(-c3cccc(F)c3)o2)c1

Solution:
4.05
-0.4
0.86
7.21

Dear colleague, could you send me inhibition for each of the items below? Thanks.
1. CS(=O)(=O)Nc1ccc(-c2cc(-c3ccccc3)cc(C(N)=O)c2N)cc1
2. CC1(C)CC(n2cnc(-c3ccc(F)cc3)c2-c2ccnc(N)n2)CC(C)(C)N1
3. COc1cccc(Nc2nccc(-c3cnn4ncccc34)n2)c1
4. CNC(=O)c1cncc(/C=C/c2ccccc2C)c1

Solution:
1: 2.28; 2: -7.58; 3: -0.58; 4: 6.54

---

I'd be grateful if you could share measured inhibition for these entries.
# TESTED SYSTEM: Casein kinase I isoform alpha (Homo sapiens) (UniProt P48729);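 further: each value is a mean percent inhibition of the kinase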
# Sequence (P48729 2-337 limits assumed): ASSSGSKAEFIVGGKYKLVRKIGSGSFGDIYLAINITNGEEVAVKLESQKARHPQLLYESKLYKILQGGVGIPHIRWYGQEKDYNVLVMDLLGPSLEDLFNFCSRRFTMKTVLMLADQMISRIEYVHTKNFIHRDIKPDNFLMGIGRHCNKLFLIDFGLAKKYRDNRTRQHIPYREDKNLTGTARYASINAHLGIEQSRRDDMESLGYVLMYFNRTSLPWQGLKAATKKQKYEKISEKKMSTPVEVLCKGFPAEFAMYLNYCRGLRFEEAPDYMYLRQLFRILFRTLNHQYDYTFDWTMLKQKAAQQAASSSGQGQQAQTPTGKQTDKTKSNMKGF
# SETTINGS: at 1 µM
Answers are plain numbers, in %.

Before answering, review these 5 worked examples.
Exercise: Return value of inhibition for input "COc1ccc(-c2nn3ncccc3c2-c2ccnc(Nc3ccc(F)c(F)c3)n2)cc1" , no commentary.
Solution: 6.66

Exercise: Return value of inhibition for input "CC(C)c1ccc(-c2cc(-c3c[nH]nc3-c3ccccn3)ccn2)cc1" , no commentary.
Solution: 9.88

Exercise: Return value of inhibition for input "CS(=O)(=O)CCNCc1ccc(-c2ccc3ncnc(Nc4ccc(OCc5cccc(C(F)(F)F)c5)cc4)c3c2)o1" , no commentary.
Solution: 6.4

Exercise: Return value of inhibition for input "c1cnn2ncc(-c3ccnc(NCCCN4CCOCC4)n3)c2c1" , no commentary.
Solution: 16.4

Exercise: Return value of inhibition for input "COc1ccc(Nc2ncc(-c3ccccc3)o2)cc1OC" , no commentary.
Solution: 6.61

Dear colleague, could you send me inhibition for each of the items below? Thanks.
1. O=C(O[C@H]1CN[C@H](C#Cc2cc3ncnc(Nc4ccc(OCc5cccc(F)c5)c(Cl)c4)c3s2)C1)N1CCOCC1
2. CCS(=O)(=O)c1ccc(OC)c(Nc2ncc(-c3cccc(F)c3)o2)c1
3. Cn1c(-c2nonc2N)nc2cnccc21
4. COc1cc2c(cc1Nc1nc(Nc3cccc(F)c3C(N)=O)c3cc[nH]c3n1)N(C(=O)CN1CCN(C(C)C)CC1)CC2
5. Cc1cc(O)cc(C)c1/C=C/c1cncc(C(=O)OC(C)(C)C)c1
6. CS(=O)(=O)CCNCc1ccoc1-c1ccc2ncnc(Nc3ccc(OCc4ccccc4)cc3)c2c1
7. CS(=O)(=O)Nc1ccc(-c2cc(-c3ccccc3)cc(C(N)=O)c2N)cc1

Solution:
[4.43, 7.11, 6.21, 11.4, 3.48, -0.39, 2.47]

Dear colleague, could you send me inhibition for each of the items below? Thanks.
1. COc1cc(N2CCN(C(C)C)CC2)ccc1Nc1nc(Nc2cccc(F)c2C(=O)O)c2cc[nH]c2n1
2. Cc1ccc(-c2cc3c(NC(=O)C4CC4)ncnc3o2)cc1
3. NC(=O)c1ccc2c(-c3ccnc(NCCCO)n3)c(-c3ccc(F)cc3)nn2c1
4. Cc1nnc(-c2cccc(-c3ccc(C(=O)NCC4CC4)cc3)c2)o1
5. COc1c(C(N)=O)cc(-c2ccc(Cl)cc2)cc1-c1ccc(S(N)(=O)=O)cc1
6. CC1(C)CC(n2cnc(-c3ccc(F)cc3)c2-c2ccnc(N)n2)CC(C)(C)N1
7. COc1ccc2ncn(-c3cc(O[C@H](C)c4ccccc4C(F)(F)F)c(C(N)=O)s3)c2c1
8. COc1cccc(Nc2nccc(-c3cnn4ncccc34)n2)c1

Solution:
1: 7.9; 2: 5.25; 3: 67.6; 4: 5.86; 5: 12.6; 6: 58.5; 7: 2.23; 8: 48

---

I'd be grateful if you could share measured inhibition for these entries.
# TESTED SYSTEM: Serine/threonine-protein kinase PAK 3 (Homo sapiens) (UniProt O75914);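 further: mean percent inhibition of PAK3, measured in a screen of the GSK published kinase inhibitor set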
# Sequence (O75914 whole entry, looked up): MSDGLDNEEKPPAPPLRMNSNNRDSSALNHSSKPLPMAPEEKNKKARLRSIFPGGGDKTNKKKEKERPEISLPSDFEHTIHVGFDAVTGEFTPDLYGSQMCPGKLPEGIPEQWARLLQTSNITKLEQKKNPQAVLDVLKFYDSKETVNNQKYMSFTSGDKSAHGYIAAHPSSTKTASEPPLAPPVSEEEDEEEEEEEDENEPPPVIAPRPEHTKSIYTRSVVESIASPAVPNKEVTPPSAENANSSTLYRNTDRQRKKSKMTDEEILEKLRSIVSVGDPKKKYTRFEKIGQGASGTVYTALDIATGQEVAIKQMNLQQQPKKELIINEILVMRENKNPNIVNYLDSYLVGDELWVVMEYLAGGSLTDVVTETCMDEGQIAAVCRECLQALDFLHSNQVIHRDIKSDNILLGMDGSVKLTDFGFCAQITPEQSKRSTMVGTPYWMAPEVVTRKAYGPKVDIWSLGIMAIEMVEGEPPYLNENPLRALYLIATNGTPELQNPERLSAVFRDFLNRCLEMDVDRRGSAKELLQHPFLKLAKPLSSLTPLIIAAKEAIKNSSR
# SETTINGS: at 0.1 µM
Give bare numbers, in %.

Before answering, review these 4 worked examples.
Exercise: Return value of inhibition for input "Cc1cc(O)cc(C)c1/C=C/c1cncc(C(N)=O)c1" , no commentary.
Solution: 2.43

Exercise: Return value of inhibition for input "CS(=O)(=O)CCNCc1ccoc1-c1ccc2ncnc(Nc3ccc(OCc4ccccc4)cc3)c2c1" , no commentary.
Solution: -3.57

Exercise: Return value of inhibition for input "CS(=O)(=O)Nc1ccc(-c2ccc3c(NC(=O)C4CC4)n[nH]c3c2)cc1" , no commentary.
Solution: 3.41

Exercise: Return value of inhibition for input "O=C(Nc1n[nH]c2nnc(-c3cccnc3)cc12)C1CC1" , no commentary.
Solution: -0.23

// moving on: another record for inhibition
Exercise: Return value of inhibition for input "O=C(O[C@H]1CN[C@H](C#Cc2cc3ncnc(Nc4ccc(OCc5cccc(F)c5)c(Cl)c4)c3s2)C1)N1CCOCC1" , no commentary.
Solution: 6.61

---

I'd be grateful if you could share measured inhibition for these entries.
# TESTED SYSTEM: Leukocyte tyrosine kinase receptor (Homo sapiens);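 further: each value is the mean inhibition of LTK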
# SETTINGS: at 1 µM
Answers are plain numbers, in %.

Before answering, review these 4 worked examples.
Exercise: Return value of inhibition for input "c1cnn2ncc(-c3ccnc(NCCCN4CCOCC4)n3)c2c1" , no commentary.
Solution: 2.33

Exercise: Return value of inhibition for input "COC(=O)Nc1nc2ccc(Oc3ccc(NC(=O)Nc4cc(C(F)(F)F)ccc4F)cc3)cc2s1" , no commentary.
Solution: 2.2

Exercise: Return value of inhibition for input "NS(=O)(=O)c1ccc(N/N=C2\C(=O)Nc3cccc(CCc4ccncc4)c32)cc1" , no commentary.
Solution: 1.43

Exercise: Return value of inhibition for input "CNC(=O)c1cncc(/C=C/c2ccccc2C)c1" , no commentary.
Solution: 2.98

Dear colleague, could you send me inhibition for each of the items below? Thanks.
1. Cn1c(-c2nonc2N)nc2cnccc21
2. O=C1Nc2ccccc2/C1=C1\CCc2cc(O)ccc21
3. CC1(C)CC(n2cnc(-c3ccc(F)cc3)c2-c2ccnc(N)n2)CC(C)(C)N1
4. N#Cc1cccc(Nc2ncc(-c3ccccc3)o2)c1
5. NS(=O)(=O)c1ccc(N/N=C2\C(=O)Nc3ccc(C(=O)NCc4ccncc4)cc32)cc1
6. Cc1ccc(-c2cc3c(NC(=O)C4CC4)ncnc3o2)cc1
7. Cc1cc(O)cc(C)c1/C=C/c1cncc(C(N)=O)c1

Solution:
1. 4.18
2. 36.7
3. 0.76
4. 3.55
5. 2.51
6. 3.83
7. 3.91

---

# TESTED SYSTEM: Ribosomal protein S6 kinase alpha-6 (Homo sapiens) (UniProt Q9UK32)
# Sequence (Q9UK32 whole entry): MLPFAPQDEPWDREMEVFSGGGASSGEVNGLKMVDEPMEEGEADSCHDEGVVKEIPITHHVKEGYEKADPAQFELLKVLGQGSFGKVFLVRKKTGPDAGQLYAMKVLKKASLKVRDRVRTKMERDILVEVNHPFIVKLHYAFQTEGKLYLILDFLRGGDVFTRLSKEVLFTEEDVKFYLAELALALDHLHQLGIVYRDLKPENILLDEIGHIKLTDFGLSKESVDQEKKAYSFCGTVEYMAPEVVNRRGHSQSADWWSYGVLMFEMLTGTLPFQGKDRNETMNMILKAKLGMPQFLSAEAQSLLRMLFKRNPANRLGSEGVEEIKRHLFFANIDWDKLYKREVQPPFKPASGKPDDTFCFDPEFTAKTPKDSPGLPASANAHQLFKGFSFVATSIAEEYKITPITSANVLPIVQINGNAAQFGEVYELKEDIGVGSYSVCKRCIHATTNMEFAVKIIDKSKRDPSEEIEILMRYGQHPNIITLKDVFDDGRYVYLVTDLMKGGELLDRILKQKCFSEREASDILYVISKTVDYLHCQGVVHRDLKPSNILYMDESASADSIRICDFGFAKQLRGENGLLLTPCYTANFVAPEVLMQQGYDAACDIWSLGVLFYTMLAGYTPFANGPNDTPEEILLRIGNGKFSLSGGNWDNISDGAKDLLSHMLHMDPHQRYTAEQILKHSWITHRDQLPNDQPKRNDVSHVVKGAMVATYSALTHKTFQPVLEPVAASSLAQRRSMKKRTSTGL
# SETTINGS: at 0.1 µM
ATTRIBUTE MEASURED: inhibition

Before answering, review these 5 worked examples.
Exercise: Report inhibition under test system Ribosomal protein S6 kinase alpha-6 (Homo sapiens) (UniProt Q9UK32) for "CS(=O)(=O)Nc1ccc(-c2cc(-c3ccccc3)cc(C(N)=O)c2N)cc1" .
Solution: -1.16%

Exercise: Report inhibition under test system Ribosomal protein S6 kinase alpha-6 (Homo sapiens) (UniProt Q9UK32) for "CN1CCC(n2cnc(-c3ccc(F)cc3)c2-c2ccnc(NCCO)n2)CC1" .
Solution: 1.56%

Exercise: Report inhibition under test system Ribosomal protein S6 kinase alpha-6 (Homo sapiens) (UniProt Q9UK32) for "O=C(O[C@H]1CN[C@H](C#Cc2cc3ncnc(Nc4ccc(OCc5cccc(F)c5)c(Cl)c4)c3s2)C1)N1CCOCC1" .
Solution: 2.22%

Exercise: Report inhibition under test system Ribosomal protein S6 kinase alpha-6 (Homo sapiens) (UniProt Q9UK32) for "Cc1cc(O)cc(C)c1/C=C/c1cncc(C(N)=O)c1" .
Solution: 0.72%

Exercise: Report inhibition under test system Ribosomal protein S6 kinase alpha-6 (Homo sapiens) (UniProt Q9UK32) for "FC(F)(F)CNc1nccc(-c2cnn3ncccc23)n1" .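 Further: reported value is the mean inhibition of RSK4, from the GSK PKIS kinase inhibitor screen.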
Solution: 0.72%

Dear colleague, could you send me inhibition for each of the items below? Thanks.
1. NS(=O)(=O)c1cccc(N/C=C2\C(=O)Nc3ccccc32)c1
2. CCS(=O)(=O)c1ccc(OC)c(Nc2ncc(-c3cccc(F)c3)o2)c1
3. CC1=C(C(=O)Nc2ccc3[nH]ncc3c2)C(c2ccc(F)cc2)N=C(c2ccc(C(F)(F)F)nc2)N1 (stereo not given)
4. CNC(=O)c1cncc(/C=C/c2ccccc2C)c1
5. COc1cccc(Nc2nccc(-c3cnn4ncccc34)n2)c1
6. N#Cc1ccc2c(-c3ccnc(NC4CC4)n3)c(-c3ccc(F)cc3)nn2c1
7. NS(=O)(=O)c1ccc(N/N=C2\C(=O)Nc3ccc(C(=O)NCc4ccncc4)cc32)cc1
8. CC1(C)CC(n2cnc(-c3ccc(F)cc3)c2-c2ccnc(N)n2)CC(C)(C)N1

Solution:
["4.77%", "2.2%", "0.55%", "0.45%", "-1.37%", "1.23%", "3.7%", "0.66%"]

Dear colleague, could you send me inhibition for each of the items below? Thanks.
1. CCOc1ccc2c(-c3ccnc(Nc4cc(OC)cc(C(F)(F)F)c4)n3)cnn2n1
2. CS(=O)(=O)CCNCc1ccc(-c2ccc3ncnc(Nc4ccc(OCc5cccc(C(F)(F)F)c5)cc4)c3c2)o1
3. Cn1c(-c2nonc2N)nc2cnccc21
4. CCS(=O)(=O)c1ccc(OC)c(Nc2ncc(-c3cccc(C(C)=O)c3)o2)c1
5. CN(c1ccc(NC(=O)NCCN2CCOCC2)cc1)c1ccnc(Nc2ccc(CS(C)(=O)=O)cc2)n1
6. COC(=O)Nc1nc2ccc(Oc3ccc(NC(=O)Nc4cc(C(F)(F)F)ccc4F)cc3)cc2s1
7. c1ccc(-c2n[nH]cc2-c2ccnc(-c3ccc(OCCn4ccnc4)cc3)c2)nc1

Solution:
1. 1.36%
2. 0.05%
3. 2.49%
4. 1%
5. 1.79%
6. 0.36%
7. 0.75%
